Listed below: normalized growth values for each entry.
Assay: chemical genetic growth profiling, strain panel (AID 1159580);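 also: tested at 20 µM; growth read once vehicle control cultures reached saturation at 30 °C; 1 = growth at the plate median or of vehicle wells; lower values mean less growth of the strain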
Conditions: S. cerevisiae deletion strains, growth OD, locus YKL068W, active compounds read low
The whole screen tested about 5,500 compounds, of which about 2,000 (36%) were called active. Another 18% or so got no clear call; they are omitted. The list shows a part of the results.
Response field accepts a number only; no unit should be typed.

CC(=O)c1ccc(O)c(CC=C(C)C)c1 | 0.957

Report normalized growth for CC(CCc1ccccc1)NCC(O)c1ccc(O)c(C(N)=O)c1 (stereo not given) please.
1.01

Report normalized growth for COc1cc(C(C)=O)cc(OC)c1O please.
0.993

Report normalized growth for CC(C)=CC1C(C(=O)O)C1(C)C (stereo not given) please.
0.988

Report normalized growth for CCOC(=O)[C@H](CCc1ccccc1)N[C@@H](C)C(=O)N1CCC[C@H]1C(=O)O please.
0.998

###

Experiment: chemical genetic growth profiling, strain panel (AID 1159580)
Details: S. cerevisiae deletion strains, growth OD, locus YGR078C, strain PAC10, active compounds read low
Hit rate of the full screen: of about 5,500 compounds, about 2,000 (36%) were called active. Another 18% or so got no clear call; they are omitted. This is one part of the list.
Measured endpoint: normalized growth
Response field accepts a number only; no unit should be typed.

Report normalized growth for CC(=O)Oc1cccc(O)c1 please.
1

###

Listed below: normalized growth values for each entry.
Test: chemical genetic growth profiling, strain panel (AID 1159580)
Settings: S. cerevisiae deletion strains, growth OD, locus YPL256C, strain CLN2, active compounds read low
Hit rate of the full screen: of about 5,500 compounds, about 2,000 (36%) were called active. About 18% were inconclusive and are not listed. The list shows a part of the results.
Response field accepts a number only; no unit should be typed.

Report normalized growth for CCCOc1ccc2nc(NC(=O)OC)[nH]c2c1 please.
1.02

Report normalized growth for C=C1c2c(Cl)ccc(O)c2C(O)=C2C(=O)[C@]3(O)C(O)=C(C(N)=O)C(=O)[C@@H](N(C)C)[C@@H]3[C@@H](O)[C@H]12 please.
1.01

Report normalized growth for CC(C)CCCC(C)[C@H]1CCC2C3C(=O)C=C4C[C@@H](O)CC[C@]4(C)C3CC[C@@]21C (stereo not given in full) please.
0.989

Report normalized growth for CC(C)=CC1C(C(=O)O)C1(C)C (stereo not given) please.
0.975

Report normalized growth for CC(=O)O[C@@H]1CC[C@@]2(C)C(C[C@@H](OC(C)=O)[C@@]3(C)C4=CC(=O)O[C@@H](c5ccoc5)[C@]4(C)CCC23)C1(C)C (stereo not given in full) please.
0.973

Report normalized growth for CC(=O)O[C@@H]1CC2C(C)(C)C(=O)C=C[C@]2(C)C2CC[C@]3(C)C(=CC(=O)O[C@H]3c3ccoc3)[C@@]21C (stereo not given in full) please.
1

###

Assay: chemical genetic growth profiling, strain panel (AID 1159580)
Details: S. cerevisiae deletion strains, growth OD, locus YER015W, strain faa2, active compounds read low
Hit rate of the full screen: of about 5,500 compounds, about 2,000 (36%) were called active. Another 18% or so got no clear call; they are omitted. The list shows a part of the results.
Listed below: normalized growth values for each entry.

O=C(O)c1cccnc1 | 0.998 (inactive)
O=C(O)c1ccccc1 | 0.987 (inactive)
C=C1c2cccc(O)c2C(O)=C2C(=O)[C@]3(O)C(O)=C(C(N)=O)C(=O)[C@@H](N(C)C)[C@@H]3[C@@H](O)[C@H]12 | 0.991 (inactive)
CN(C)CCCN1c2ccccc2Sc2ccc(Cl)cc21 | 0.111 (active)

Report normalized growth for Oc1c(Cl)cc(Cl)cc1Sc1cc(Cl)cc(Cl)c1O please.
0.0587 (active)

Report normalized growth for OC[C@H]1O[C@@H](O[C@@H]2[C@@H](CO)O[C@](O)(CO)[C@H]2O)[C@H](O)[C@@H](O)[C@H]1O please.
1 (inactive)

Report normalized growth for CN(C)[C@@H]1C(=O)C(C(N)=O)=C(O)[C@@]2(O)C(=O)C3=C(O)c4c(O)ccc(Cl)c4[C@@](C)(O)[C@H]3C[C@@H]12 please.
0.977 (inactive)

Report normalized growth for C=C1c2c(Cl)ccc(O)c2C(O)=C2C(=O)[C@]3(O)C(O)=C(C(N)=O)C(=O)[C@@H](N(C)C)[C@@H]3[C@@H](O)[C@H]12 please.
0.912 (active)

Report normalized growth for C=C1C[C@]23C[C@@]1(O)CC[C@H]2[C@@]12C=C[C@H](O)[C@@](C)(C(=O)O1)[C@H]2[C@@H]3C(=O)O please.
1.02 (inactive)

Report normalized growth for CC(=O)Nc1ccc(S(=O)(=O)Nc2onc(C)c2C)cc1 please.
0.986 (inactive)

Report normalized growth for CN(C)CCCN1c2ccccc2CCc2ccc(Cl)cc21 please.
0.972 (inactive)

###

Listed below: normalized growth values for each entry.
Assay: chemical genetic growth profiling, strain panel (AID 1159580)
Details: S. cerevisiae deletion strains, growth OD, locus YER015W, strain faa2, active compounds read low
About 2,000 (36%) of roughly 5,500 compounds were called active. About 18% were inconclusive and are not listed. The list shows a part of the results.
Response field accepts a number only; no unit should be typed.

Here are 2 molecules together with their reported answers.
CC(=O)Oc1ccc(O)cc1 | 0.992
CC(C)CCCC(C)[C@H]1CCC2C3C(=O)C=C4C[C@@H](O)CC[C@]4(C)C3CC[C@@]21C (stereo partly drawn) | 1.01

Please look at the following molecule next.
Report normalized growth for CN1CCN(C(=O)OC2c3nccnc3C(=O)N2c2ccc(Cl)cn2)CC1 (stereo not drawn) please.
0.99

###

Test: chemical genetic growth profiling, strain panel (AID 1159580);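 also: tested at 20 µM; growth read once vehicle control cultures reached saturation at 30 °C; 1 = growth at the plate median or of vehicle wells; lower values mean less growth of the strain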
Conditions: S. cerevisiae deletion strains, growth OD, locus YJL187C, strain SWE1 (second series), active compounds read low
The campaign covered roughly 5,500 compounds. About 2,000 (36%) were called active. Not shown: some 18% with an inconclusive outcome. The list shows a part of the results.
Listed below: normalized growth values for each entry.
Response field accepts a number only; no unit should be typed.

Here are 2 compounds together with their reported answers.
COc1ccc([C@@H]2CC(=O)c3c(O)cc(O[C@@H]4O[C@H](CO[C@H]5O[C@@H](C)[C@H](O)[C@@H](O)[C@H]5O)[C@@H](O)[C@H](O)[C@H]4O)cc3O2)cc1O | 1.02
CC[N+](C)(C)c1cccc(O)c1 | 0.977

Report normalized growth for Cc1c(C)c2c(c(C)c1O)CCC(C)(CCCC(C)CCCC(C)CCCC(C)C)O2 (stereo not given) please.
0.997

Report normalized growth for NC(=O)NC(=O)Cc1ccccc1 please.
0.995

Report normalized growth for CC(C)CCCC(C)C1CCC2C3=CC[C@H]4C[C@@H](O)CC[C@]4(C)C3CC[C@@]21C (stereo not given in full) please.
0.994

Report normalized growth for C/C1=C/CC(C)(C)/C=C/C/C(C)=C/CC1 please.
0.976

Report normalized growth for CN[C@@H]1[C@H](O)[C@H](NC)[C@H]2O[C@@]3(O)C(=O)C[C@@H](C)O[C@H]3O[C@@H]2[C@H]1O please.
1.02

Report normalized growth for CC(C)(C)NCC(O)c1ccc(O)c(CO)c1 (stereo not given) please.
0.996

Report normalized growth for O=C(OCc1ccccc1)c1ccccc1 please.
0.973

Report normalized growth for NNCc1cccc(O)c1 please.
0.991

###

Experiment: chemical genetic growth profiling, strain panel (AID 1159580);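 also: tested at 20 µM; growth read once vehicle control cultures reached saturation at 30 °C; 1 = growth at the plate median or of vehicle wells; lower values mean less growth of the strain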
Conditions: S. cerevisiae deletion strains, growth OD, locus YLL001W, strain dnm1, active compounds read low
Screen size: about 5,500 compounds; about 2,000 (36%) were called active. About 18% were inconclusive and are not listed. The list shows a part of the results.
Listed below: normalized growth values for each entry.
Response field accepts a number only; no unit should be typed.

Here are 2 molecules together with their reported answers.
Cc1c(C)c2c(c(C)c1O)CCC(C)(CCCC(C)CCCC(C)CCCC(C)C)O2 (stereo not drawn) | 0.983
CC(=O)Oc1ccc(O)cc1 | 0.994

Report normalized growth for CO[C@H]1CC(O[C@@H]2/C(C)=C/C[C@@H]3C[C@@H](C[C@]4(CC[C@H](C)[C@@H](C5CCCCC5)O4)O3)OC(=O)[C@@H]3C=C(C)/C(=N\O)[C@H]4OC/C(=C\C=C\[C@@H]2C)[C@]43O)O[C@@H](C)C1O (stereo partly drawn) please.
0.974

###

Assay: chemical genetic growth profiling, strain panel (AID 1159580);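 also: tested at 20 µM; growth read once vehicle control cultures reached saturation at 30 °C; 1 = growth at the plate median or of vehicle wells; lower values mean less growth of the strain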
Conditions: S. cerevisiae deletion strains, growth OD, locus YOR080W, strain dia2, active compounds read low
Hit rate of the full screen: of about 5,500 compounds, about 2,000 (36%) were called active. Not shown: some 18% with an inconclusive outcome. Some of the results follow.
Measured endpoint: normalized growth

CC(C)c1ccc2c(c1)CCC1[C@](C)(CN)CCC[C@]21C (stereo partly drawn) | 0.995 (inactive)
CN(C)[C@@H]1C(=O)C(C(N)=O)=C(O)[C@@]2(O)C(=O)C3=C(O)c4c(O)ccc(Cl)c4[C@@H](O)[C@H]3C[C@@H]12 | 0.981 (inactive)
CS(=O)(=O)c1ccc([C@@H](O)[C@@H](CO)NC(=O)C(Cl)Cl)cc1 | 1.02 (inactive)
CN(C)C(=O)Oc1cccc([N+](C)(C)C)c1 | 0.996 (inactive)
CCN(CC)CCOC(=O)C1(C2CCCCC2)CCCCC1 | 0.982 (inactive)

Report normalized growth for CC(C)CCCC(C)C1CCC2C3C[C@@H](O)[C@@]4(O)C[C@@H](O)CC[C@]4(C)C3CC[C@]12C (stereo partly drawn) please.
1 (inactive)

Report normalized growth for O=C(NCO)c1cccnc1 please.
1 (inactive)

Report normalized growth for CCN1CCN(C(=O)NC(C(=O)N[C@@H]2C(=O)N3[C@@H]2SC(C)(C)[C@@H]3C(=O)O)c2ccccc2)C(=O)C1=O (stereo partly drawn) please.
0.997 (inactive)

Report normalized growth for NC(=O)NC(=O)Cc1ccccc1 please.
0.986 (inactive)

Report normalized growth for CC(C)CCCC(C)[C@H]1CCC2C3CC=C4CC(=O)CC[C@]4(C)C3CC[C@@]21C (stereo partly drawn) please.
0.996 (inactive)

Report normalized growth for C=C1c2c(Cl)ccc(O)c2C(O)=C2C(=O)[C@]3(O)C(O)=C(C(N)=O)C(=O)[C@@H](N(C)C)[C@@H]3[C@@H](O)[C@H]12 please.
0.988 (inactive)

Report normalized growth for CN1CCN(C(=O)OC2c3nccnc3C(=O)N2c2ccc(Cl)cn2)CC1 (stereo not drawn) please.
0.987 (inactive)
